These data points were gathered from PubChem BioAssay AID1846.

In this section, each of the molecules is paired with its reported inhibition.
MEASURED ON: Heat shock protein HSP 90-alpha (Homo sapiens)
TEST DETAILS: inhibitors of HSP90 chaperone activity – cell lysate, luminescence, confirmation (AID 1846);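 note: 0% = vehicle wells and 100% = reference inhibitor wells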
EXPERIMENTAL CONTEXT: rabbit reticulocyte lysate, luciferase refolding luminescence, 3 h; at 5.9 µM; hits give high values
Screen size: about 2,300 compounds; about 1,500 (65%) were called active. The set was probably picked from earlier hits. The list is a sample of the results.
# number only, unit % dropped from output

# example entries with known answers
Quick note, inhibition for `COc1ccc(/C=N/Nc2ccccc2C(=O)O)cc1` landed at 29.5

Entry `Cc1ccc(C(=O)O/N=C(\N)c2ccccn2)cc1Cl` , inhibition reported as 29.5

Note: attention shifts to another entry.
For this molecule ( `Cn1c(-c2ccco2)nc2cc3ccccc3cc21` ), measured inhibition is 58.9
